Target: human Kv7.2 (Homo sapiens (Human))
Test: SyncroPatch 384 electrophysiology, activation of Kv7.2 in CHO cells
Format: cell-based
Details: CHO; Kv7.2 activation max %, relative to 30 μM ML-213 max activation
Description: The potency of Kv7 potentiators was determined using the SyncroPatch 384 (Nanion) high throughput electrophysiology platform. […] At the beginning of each assay, 20 μl of cell suspension was dispensed into each well of a multi-hole 384-well SyncroPatch chip by the onboard pipettor. […] Human Kv7.2, Kv7.4 or Kv7.5/7.3 channels were evaluated using a voltage protocol in which cells were voltage-clamped at a holding potential of −60 mV. […] Potassium currents were measured from the −90 mV repolarizing step. […]
value_kind: Emax (%)

1. C[C@H](NC(=O)N[C@@H]1C[C@H]1c1ccccc1)c1ccnc(OC(F)F)c1 [Example 30]; 72

I = O=C(NCc1ccnc(-n2cccn2)c1)N[C@@H]1C[C@H]1C1CCCCC1 (racemic) [Example 2]
II = C[C@H]1[C@H](NC(=O)NCc2ccnc(OC(F)F)c2)C1(F)F (racemic) [Example 42]
Quick one: lower Emax, I or II ? Answer = label. II
